Data origin, for the record: ChEMBL document CHEMBL1151819

system: RAW264.7; test: Antiinflammatory activity in LPS-stimulated mouse RAW264.7 cells assessed as reduction in COX2 protein expression at 10 uM by immunoblot analysis; type: functional; set-up: scale not given: the % may be the effect or the level left
MEASURED_PROPERTY: Activity

Please review the following examples before continuing.
{"COMPOUND": "O=C(/C=C/c1ccc(O)c(O)c1)OCCc1ccccc1", "TARGET_OF_ASSAY": "RAW264.7", "Activity": "70.2%"}
{"COMPOUND": "C=C1C(=O)O[C@@H]2C[C@H]1[C@]1(O)C/C(C)=C/CC/C(C)=C/CC[C@@]2(CO)O1 (relative stereo) [DURUMHEMIKETALOLIDE A]", "TARGET_OF_ASSAY": "RAW264.7", "Activity": "66.7%"}

For the next question, use this compound.
Known value: RAW264.7 Activity of the compound C=C1C(=O)O[C@H]2C[C@H]1[C@]1(O)C/C(C)=C/CC/C(C)=C/CC[C@]2(COC(C)=O)O1 (relative stereo) [DURUMHEMIKETALOLIDE C] equals 34.7%
